Exercise: for every item that follows, state its recorded TGI.
- Test system: ACHN renal
- Experimental details: NCI tumour cell line growth inhibition, 48 h
Answers are plain numbers, in µM.

Study these solved cases before continuing.
Compound: Nc1ccc(C(=O)NN2C(=O)[C@H](Cl)C2c2ccc(Cl)cc2)cc1 (stereo not given in full)
Target or test system: ACHN renal
Result value: 2.48
//
Compound: COC1(OC)CC(CO)(CNc2nc(N)nc(Cl)c2C=O)C1
Target or test system: ACHN renal
Result value: 13
//
Compound: CC1(C)CC[C@]2(C(N)=O)CC[C@]3(C)C(=CC[C@@H]4[C@@]5(C)C/C(=C/c6cccnc6)C(=O)C(C)(C)[C@@H]5CC[C@]43C)[C@@H]2C1
Target or test system: ACHN renal
Result value: 13.6

Let us examine a further case.
TGI measured on O=[N+]([O-])c1ccc2c(c1)C(=NO)c1cc([N+](=O)[O-])ccc1-2 = 39.7
